This collection of values is drawn from patent US20260248800A1.

# assay: H-bond acidity (α2^H) of the RTA by 1H NMR
# Format: physicochemical
# cond: estimated from the 1H NMR chemical shift difference of the amine proton in DMSO-d6 and benzene-d6
parameter: α2^H

molecule: Cc1ccc2c(c1)Oc1cc(C#N)ccc1N2
α2^H: 0.55
--
molecule: Clc1ccc2c(c1)Nc1ccccc1S2 [Compound 24, reference compound]
α2^H: 0.43
--
molecule: COc1ccc2c(c1)Oc1cc([N+](=O)[O-])ccc1N2
α2^H: 0.60

---

# assay: H-bond acidity (α2^H) of the RTA by 1H NMR
# Type: physicochemical
# cond: estimated from the 1H NMR chemical shift difference of the amine proton in DMSO-d6 and benzene-d6
parameter: α2^H

compound: N#Cc1ccc2c(c1)Oc1ccccc1N2
observed measurement: 0.56
--
compound: COc1ccc2c(c1)Oc1ccccc1N2
observed measurement: 0.42
--
compound: FC(F)(F)c1ccc2c(c1)Sc1ccccc1N2 [Compound 26, 3-trifluoromethylphenothiazine, reference compound]
observed measurement: 0.45
--
compound: Cc1cccc2c1Nc1c(C)cccc1O2
observed measurement: 0.12
--
compound: O=Cc1ccc2c(c1)Sc1ccccc1N2 [Compound 27, 3-formylphenothiazine, reference compound]
observed measurement: 0.47

(1) c1ccc2c(c1)Nc1cc3ccccc3cc1O2 [Compound 4, 12H-Benzo[b]phenoxazine]
(2) Cc1cc(C)c2c(c1)Oc1cc(C)cc(C)c1N2
## Task Param metric = α2^H; output whichever of 1 , 2 has the minimum value. Label of pick, please.
## Result 2
(2: 0.10, 1: 0.49)

---

# System: Pfa-1 mouse embryonic fibroblasts (MEFs)
# cond: read-out: Pfa-1 MEF Ferroptosis EC50; RSL3-induced cell death (150 nM for 5 hours), AquaBluer
parameter: EC50 (nM)
Give just the numeric value; nM need not be written.

## Task Requested read-out: EC50. Entry: Cc1ccc2c(c1)Oc1cc(C)ccc1N2 [Compound 35, 3,7-Dimethylphenoxazine]
## Result 5.4

## Task Value lookup for EC50; key = Clc1cccc(CN=C2Nc3ccccc3NC23CCNCC3)c1 [Lip-1, liproxstatin-1]
## Result 18

## Task So what does the record say about EC50 for CCOC(=O)c1ccc(NC2CCCCC2)c(N)c1 [Fer-1, ferrostatin-1] ?
## Result 27

## Task Given the entry FC(F)(F)c1ccc2c(c1)Nc1ccccc1O2 [Compound 6, 2-trifluoromethylphenoxazine] , report its measured EC50.
## Result 8.8

## Task Need EC50, item FC(F)(F)c1ccc2c(c1)Nc1ccccc1S2 [Compound 25, reference compound]
## Result 16

## Task Which value of EC50 has been reported for Clc1ccc2c(c1)Nc1ccccc1S2 [Compound 24, reference compound] in the records?
## Result 56

---

# assay: H-bond acidity (α2^H) of the RTA by 1H NMR
# Format: physicochemical
# cond: estimated from the 1H NMR chemical shift difference of the amine proton in DMSO-d6 and benzene-d6
parameter: α2^H

(A) Cc1cccc2c1Nc1c(C)cccc1S2 [Compound 31, 1,9-dimethylphenothiazine, reference compound]
(B) FC(F)(F)c1ccc2c(c1)Nc1ccccc1O2
## Task Of A and B , which one carries the higher reported α2^H? API: response body contains the label of the selected item.
## Result B
(B: 0.51, A: 0.06)

---

# assay: H-bond acidity (α2^H) of the RTA by 1H NMR
# Format: physicochemical
# cond: estimated from the 1H NMR chemical shift difference of the amine proton in DMSO-d6 and benzene-d6
parameter: α2^H

compound: O=Cc1ccc2c(c1)Oc1cc(C=O)ccc1N2
α2^H: 0.63
--
compound: c1ccc2c(c1)Nc1ccccc1S2 [Compound 2, phenothiazine, reference compound]
α2^H: 0.38
--
compound: N#Cc1ccc2c(c1)Oc1cc(C=O)ccc1N2
α2^H: 0.64
--
compound: COc1ccc2c(c1)Sc1cc(OC)ccc1N2 [Compound 32, 3,7-dimethoxyphenothiazine, reference compound]
α2^H: 0.34
--
compound: Cc1c(C)c2c(c(C)c1O)CCC(C)(C)O2 [PMC, 2,2,5,7,8-Pentamethyl-6-chromanol, reference compound]
α2^H: 0.38

(I) Cc1ccc2c(c1)Oc1cc([N+](=O)[O-])ccc1N2
(II) c1ccc2c(c1)Nc1cc3ccccc3cc1S2 [Compound 5, 12H-Benzo[b]phenothiazine, reference compound]
## Task Lab note: record which item had the higher α2^H, I or II . Answer by stating the label of the chosen item.
## Result I
(I: 0.60, II: 0.40)

---

# assay: Liver microsome stability assay
# cond: BALB/c, mouse, liver microsomes, pH 7.4
parameter: half-life at 10 μM (min)
Enter your answer as a number in min; do not include the unit.

## Task Reported half-life at 10 μM for c1ccc2c(c1)Nc1ccccc1S2 [Compound 2, phenothiazine, reference compound] : what is it?
## Result 11.5

---

# assay: H-bond acidity (α2^H) of the RTA by 1H NMR
# Type: physicochemical
# cond: estimated from the 1H NMR chemical shift difference of the amine proton in DMSO-d6 and benzene-d6
parameter: α2^H

compound: N#Cc1ccc2c(c1)Oc1cc([N+](=O)[O-])ccc1N2
α2^H: 0.69

compound: FC(F)(F)c1ccc2c(c1)Nc1ccccc1S2 [Compound 25, reference compound]
α2^H: 0.44

compound: Cc1cc(C)c2c(c1)Nc1cc(C)cc(C)c1O2
α2^H: 0.39

compound: O=[N+]([O-])c1ccc2c(c1)Oc1ccccc1N2
α2^H: 0.62

compound: CCN(CC)c1ccc2c(c1)Oc1cc([N+](=O)[O-])ccc1N2
α2^H: 0.58

compound: COc1ccc2c(c1)Oc1cc(OC)ccc1N2
α2^H: 0.40

compound: O=[N+]([O-])c1ccc2c(c1)Sc1ccccc1N2 [Compound 28, 3-nitrophenothiazine, reference compound]
α2^H: 0.52

compound: O=[N+]([O-])c1ccc2c(c1)Sc1cc([N+](=O)[O-])ccc1N2 [Compound 29, 3,7-Dinitrophenothiazine, reference compound]
α2^H: 0.62

---

# assay: H-bond acidity (α2^H) of the RTA by 1H NMR
# Format: physicochemical
# cond: estimated from the 1H NMR chemical shift difference of the amine proton in DMSO-d6 and benzene-d6
parameter: α2^H

compound: COc1ccc2c(c1)Oc1cc(C#N)ccc1N2
α2^H: 0.55
//
compound: Cc1ccc2c(c1)Oc1cc(C)ccc1N2
α2^H: 0.41
//
compound: O=[N+]([O-])c1ccc2c(c1)Oc1cc([N+](=O)[O-])ccc1N2
α2^H: 0.72
//
compound: c1ccc2c(c1)Nc1ccccc1[Se]2 [Compound 3, phenoselenazine, reference compound]
α2^H: 0.36
//
compound: c1ccc2c(c1)Nc1ccccc1O2 [Compound 1, phenoxazine, reference compound]
α2^H: 0.44
